Hey, just so you know, these numbers are from the supplement of paper PMC12764529.

Answer each item with its documented folding stability dG unfold.
ASSAY METHOD TEXT: folding stability dG unfold (combined trypsin and chymotrypsin); higher = more stable
Please reply with the bare figure in kcal/mol and do not write the unit itself.

Given the sequence SAGGSMPPDTEIAVIRVEVRPPDGSTLPLLFTVPLEKVEEVAKEIAERLREKGYEVKVELAAVFPVSAGGSA [r2_274_TrMRF] , what is its reported folding stability dG unfold?
2.04

Could you do the same for SAAVTPLTETIPYTPEEARAAAEEVAAARAAALRAAGYRVLSVDVVEMEPGEYVIRMRLTVAAPDEALPSAG [r14_973_JUSTAS] , please?
2.86

Query SAGGSAGGSAGMVTEESLEIEPGKGLIVRTVTDRRESGIVTETEKTPVSEAEREAIRKALSAGGSAGGSAGG [r11_47_JUSTAS] next
-0.201

# repeat for SAGGSKMEIVKYDKEKNVIYVRVDGKTYTFPLDEITEVTFDEETGELTIKVNGKTYTIKLDLPDLVSAGGSA [r2_48_TrROS_Hall]
4.11
